- System: Calf thymus DNA
- Procedure Text: Binding affinity to calf thymus DNA assessed by UV-vis spectroscopy
- Format: nucleic-acid assay
- Settings: Bos taurus
Provide the recorded Kb for the entries that follow.
One number for each entry, in ×10⁵ /M.

// known answers, use as guide
{"Smiles Input": "O=c1c2sc3ccccc3c2nnn1-c1ccccc1", "Kb / ×10⁵ /M": 6.67}
{"Smiles Input": "COc1cc(-n2nnc3c(sc4ccccc43)c2=O)cc(OC)c1OC", "Kb / ×10⁵ /M": 9.84}
{"Smiles Input": "Cc1ccc(-n2nnc3c(sc4ccccc43)c2=O)cc1", "Kb / ×10⁵ /M": 1.23}

As a next step, examine the compound that follows.
Kb in this record for CCOC(=O)c1sc2ccccc2c1/N=N/Nc1ccccc1 : 9.87

---

- Tested on: Calf thymus DNA
- Procedure Text: Binding affinity to calf thymus DNA assessed as change in CD spectrum of DNA by CD titration method
- Format: nucleic-acid assay
- Settings: Bos taurus
Activity calls are given as the source filed them. The rule behind the calls is not given here.
In this exercise, the only acceptable responses are T = active, F = inactive

Please review the following examples before continuing.
{"Smiles Input": "CCOC(=O)c1sc2ccccc2c1/N=N/Nc1cc(OC)c(OC)c(OC)c1", "Class": "F"}
{"Smiles Input": "COc1ccc(-n2nnc3c(sc4ccccc43)c2=O)cc1", "Class": "T"}
{"Smiles Input": "COc1cc(-n2nnc3c(sc4ccccc43)c2=O)cc(OC)c1OC", "Class": "F"}
{"Smiles Input": "O=c1c2sc3ccccc3c2nnn1-c1ccccc1", "Class": "F"}
{"Smiles Input": "Cc1ccc(-n2nnc3c(sc4ccccc43)c2=O)cc1", "Class": "T"}

Exercise: State the result this test recorded for CCOC(=O)c1sc2ccccc2c1/N=N/Nc1ccccc1 .
Key: T

---

- Tested on: Calf thymus DNA
- Procedure Text: Binding affinity to calf thymus DNA assessed as DNA intercalation by viscosity study
- Assay type: nucleic-acid assay
- Settings: Bos taurus
Active and inactive are the calls of the source. The rule behind the calls is not given here.
Tick one outcome: label 1 = active, label 0 = inactive

Illustrative cases are given below, each with its answer.
{"Smiles Input": "O=c1c2sc3ccccc3c2nnn1-c1ccc(F)c(Cl)c1", "Target Entity": "Calf thymus DNA", "Class": "label 0"}
{"Smiles Input": "COc1ccc(-n2nnc3c(sc4ccccc43)c2=O)cc1", "Target Entity": "Calf thymus DNA", "Class": "label 1"}
{"Smiles Input": "CCOC(=O)c1sc2ccccc2c1/N=N/Nc1ccccc1", "Target Entity": "Calf thymus DNA", "Class": "label 1"}
{"Smiles Input": "CCOC(=O)c1sc2ccccc2c1/N=N/Nc1ccc(F)c(Cl)c1", "Target Entity": "Calf thymus DNA", "Class": "label 0"}
{"Smiles Input": "CCOC(=O)c1sc2ccccc2c1/N=N/Nc1ccc(C)cc1", "Target Entity": "Calf thymus DNA", "Class": "label 0"}
{"Smiles Input": "Cc1ccc(-n2nnc3c(sc4ccccc43)c2=O)cc1", "Target Entity": "Calf thymus DNA", "Class": "label 1"}
{"Smiles Input": "CCOC(=O)c1sc2ccccc2c1/N=N/Nc1cc(OC)c(OC)c(OC)c1", "Target Entity": "Calf thymus DNA", "Class": "label 1"}
{"Smiles Input": "O=c1c2sc3ccccc3c2nnn1-c1ccccc1", "Target Entity": "Calf thymus DNA", "Class": "label 1"}

Exercise: Recorded test outcome, item COc1cc(-n2nnc3c(sc4ccccc43)c2=O)cc(OC)c1OC
Key: label 1
